assay target: T1, UNK ZnF1-6 (called full-length) (human, UniProt Q9C0B0 30-357)
T1 sequence: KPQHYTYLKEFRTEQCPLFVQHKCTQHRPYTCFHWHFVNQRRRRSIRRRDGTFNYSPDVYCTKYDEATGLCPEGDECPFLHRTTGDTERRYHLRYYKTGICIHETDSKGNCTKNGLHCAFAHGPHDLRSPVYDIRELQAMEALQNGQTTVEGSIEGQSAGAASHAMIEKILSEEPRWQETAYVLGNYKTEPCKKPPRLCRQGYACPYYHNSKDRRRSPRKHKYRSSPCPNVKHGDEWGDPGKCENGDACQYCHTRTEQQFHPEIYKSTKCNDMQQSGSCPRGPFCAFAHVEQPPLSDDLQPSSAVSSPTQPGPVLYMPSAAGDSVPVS
assay protocol: nsRBNS (natural sequence RNA bind-n-seq); RBNS binding buffer (assumed for nsRBNS): 25 mM Tris pH 7.5, 150 mM KCl, 3 mM MgCl2, 0.01% Triton X-100, 500 ug/ml BSA, 20 U/ml SUPERase-In, 4 C; UNK is unkempt and MSI1 is Musashi-1; names of the RNAs are library labels; protein concentration not given here; high values mean tight binding
In all, about 5,800 sequences were measured (“enrichment r”: median about 0.68, highest 2% from about 11 on). Shown is part of a subset that was picked to be rich in the highest values.
value kind: binding signal
Could you write the number and then its unit?

Input line: Return reported binding signal; argument: chr1:93361585:93361687:+|3pUTR|ENSG00000117505|unk|total|mutant (ssRNA) RNA: GGGAGUUCUACAGUCCGACGAUCUUUAACUUGCCGUUACCGUUUACUUAUUGUUUUCCGAAUUACUUUUACAUUUUCCCAACCCGAUGGCCCCGAGUCCAACAUUACCUUUUGAGAUGACAUUAUUGUCUCCAUAAUUGAGUGCAACAGAGGAUUGAGCAUCA
Output line: 4.48 enrichment R

Input line: And what about the binder chr3:89481969:89482070:+|3pUTR|ENSG00000044524|msi1|FALSE|unique (ssRNA) RNA: GGGAGUUCUACAGUCCGACGAUCAUAUGUGUUUACUUUAAACUUGUCUUUUCAAAAUAUUACUCAGUUUAUGUUGUACAAUGUAGAUGGCCUCUUACUAAUGUAAAAUGAUUUGUAGUGGAAACAUUUAUAUUUUUAUAAUAACAACAGAGGAUUGAGCAUCA ?
Output line: 1.68 enrichment R

Input line: Then this binder: chr1:9729969:9730061:-|3pUTR|ENSG00000171603|msi1_unk|total|mutant (ssRNA) RNA: GGGAGUUCUACAGUCCGACGAUCGUUUUUAUUUUUUCCAAACCCGUGCAUGUAUAAAUAAUGGCAGGAUGGGGGGUACUGUGCCGAUGAUUAACUGACUUUUUAAUAUUUUGUAAAUAAAUCGGAUUCCUUGUGUCCUUUGUGCAACAGAGGAUUGAGCAUCA
Output line: 1.54 enrichment R

Recorded values, source paper PMC12136788.
